assay: Brain penetration after single oral dose in rats; type: in vivo; settings: Sprague-Dawley, CSF and plasma; rat; single oral dose (compound 26 5 mg/kg, 62 15 mg/kg, 20, 63 and 66 50 mg/kg); at or near Tmax; read-out: CSF/Plasma (%)
Measured Quantity: Kp

{"Molecule": "CC(C)(C)/[N+]([O-])=C/c1ccc(S(C)(=O)=O)cc1 [Compound 62]", "Kp": 0.786}

[P] CC(C)(C)/[N+]([O-])=C/c1ccccc1S(C)(=O)=O [Compound 66]
[Q] CC(C)(C)/[N+]([O-])=C/c1ccc(S(=O)(=O)Nc2cccnc2)cc1 [Compound 26]
[R] CC(C)(C)/[N+]([O-])=C/c1ccc(S(C)(=O)=O)cc1S(C)(=O)=O [Compound 63]
[S] CC(C)(C)/[N+]([O-])=C/c1ccc(S(N)(=O)=O)cc1 [Compound 20]
In: Sort the molecules on Kp; start with the lowest figure. Kindly provide the labels arranged according to the requested ordering.
Out: Q, S, R, P
